# Test system: ACHN
# assay-method-text: NCI tumour cell line growth inhibition, 48 h
Calls of active or inactive are those of the source. Cut-off read from the data, not from the text of the source: active = GI50 up to about 1.1 µM and inactive = higher.
assay-endpoint: GI50

compound	GI50
O=C(/C=C/c1ccc(O)cc1)OC[C@@H](O)COC1OC(CO)C(O)C(O)C1O (stereo not given in full)	> 100 µM (inactive)

Your task in this section: give GI50 for each listed record.
1. CCOC(=O)C(C)(C)C(O)C(C)C (stereo not given)
2. CCCCn1c(C)c(C(=O)CC)c(C(=O)NCCN2CCN(c3ccccc3Cl)CC2)c1C
3. Cc1ccc(NS(=O)(=O)c2cc(C(C)(C)C)ccc2OCCOCCOCCOc2ccc(C(C)(C)C)cc2S(=O)(=O)Nc2ccc(C)cc2)cc1
4. O=c1[nH]nc(-c2ccccc2)n1/N=C/c1ccco1

RESULT:
> 100 µM (inactive)
16.4 µM (inactive)
> 100 µM (inactive)
> 100 µM (inactive)

* * *

# System: KM-20L2
# assay-method-text: NCI tumour cell line growth inhibition, 48 h
Calls of active or inactive are those of the source. Rule as the data show it: active = GI50 up to about 1.1 µM and inactive = higher.
Consider the following molecules; for each one, report its GI50.

See these solved cases before continuing.
molecule	assayed-target	reported-measurement
CC1NOC(=O)C1/N=N/c1ccccc1Cl (stereo unspecified)	KM-20L2	68.4 µM (inactive)
CC(C)(C)C1CCC2(CC1)c1[nH]c3ccccc3c1C1(CCC(C(C)(C)C)CC1)c1[nH]c3ccccc3c12 (stereo unspecified)	KM-20L2	> 100 µM (inactive)
COc1cc2ccc3c4c(OC)cc(OC)c(OC)c4c([O-])[n+](C)c3c2cc1OC	KM-20L2	9.38 µM (inactive)

Give one value of GI50 per listed molecule.
1. c1ccc(N2N=C(c3ccco3)CC2c2ccco2)cc1 (stereo unspecified)
2. COCCOCCOCCOc1cccc2c1C(=O)c1cccc(OCCOCCOCCOC)c1C2=O
3. O=C1NN=C(c2ccc([N+](=O)[O-])cc2)C1n1nc(-c2ccccc2)c2ccccc2c1=O (stereo unspecified)

RESULT:
1: > 100 µM (inactive); 2: > 100 µM (inactive); 3: > 100 µM (inactive)

* * *

# Tested on: HCT-116
# assay-method-text: NCI tumour cell line growth inhibition, 48 h
The source made the active and inactive calls. Rule as the data show it: active = GI50 up to about 1.1 µM and inactive = higher. Where a SMILES comes first, the peptide text is derived from it. The star is where a group is joined. Cbz = O=C(OCc1ccccc1)*; NHNH2 = NN*
assay-endpoint: GI50

Answered cases to consult:
molecule	GI50
Cc1ccc(Nc2nc(=S)[nH]c3[nH]ncc23)cc1	91.2 µM (inactive)
CCCCCCCC/C=C\CCCCCCCC(=O)O [OLEIC ACID]	114 µM (inactive)
OCC1OC(n2nc(-c3ccccc3)nc2-c2cnccn2)C(O)C(O)C1O (stereo not given)	> 100 µM (inactive)

Dear reader, for each entry below, please note its GI50.
1. CC1C=C(OC(=O)c2ccccc2)C(=O)C(n2cc(F)c(=O)n(C(=O)c3ccccc3)c2=O)O1 (stereo not given)
2. NNC1=Nc2ccc(Cl)cc2C(=S)N2CSCC12 (stereo not given)
3. COc1cc2c(cc1OC)CC1c3cc(OC)c(OC)cc3CCN1CC2 (stereo not given)
4. CCOC(=O)CCC(NC(=O)OCc1ccccc1)C(=O)NC(CCC(=O)OCC)C(=O)NN (stereo not given) (Cbz-Glu(OEt)-Glu(OEt)-NHNH2; configuration not given here)

RESULT:
["32.1 µM (inactive)", "> 100 µM (inactive)", "26.3 µM (inactive)", "> 100 µM (inactive)"]

* * *

# Tested on: NCI-H226
# assay-method-text: NCI tumour cell line growth inhibition, 48 h
Activity calls are given as the source filed them. Cut-off read from the data, not from the text of the source: active = GI50 up to about 1.1 µM and inactive = higher.
Hi there, use one of these labels in your reply, thanks! True for active, False for inactive

For orientation, consider the following solved cases.
compound	assigned-class
CC1CC(=O)C2CC(CO)=CCCC2C1(C)CC/C(=C/CO)CO (stereo not drawn)	False
C=C(CC[C@@H](C(=O)O)[C@H]1[C@H](O)C[C@@]2(C)C3=CC[C@@H](C(=C)C)[C@](C)(CCC(=O)O)C3=CC[C@]12C)C(C)C [PORICOIC ACID A]	False
CC1(O)C(C)(O)C(C)(O)C1(C)O (stereo not drawn)	False
COc1ccc(/N=N/N2CCCC2)cc1	False
CCOC1=NC(C(F)(F)F)(C(F)(F)F)N=C(/N=C(/N)N(C)C(C(C)C)P(=O)(OC(C)C)OC(C)C)O1 (stereo not drawn)	False
Nc1ccc(/N=N/c2ccc(/C=C/c3ccc(/N=N/c4ccc(N)c5ccc(S(=O)(=O)O)cc45)cc3S(=O)(=O)O)c(S(=O)(=O)O)c2)c2cc(S(=O)(=O)O)ccc12	False
CN1N=C(c2ccncc2)OC1c1cccc(F)c1 (stereo not drawn)	False
Cc1ccc(S(=O)(=O)NCCSCCSCCNS(=O)(=O)c2ccc(C)cc2)cc1	False

QUERY: How did this test come out for C=C(CCCCCCCCC)CC(=O)SCCNC(=O)CCNC(=O)C(O)C(C)(C)COP(=O)(O)OP(=O)(O)OCC1OC(n2cnc3c(N)ncnc32)C(O)C1OP(=O)(O)O (stereo not drawn) ?
RESULT: False

QUERY: Tell me the recorded outcome of this test for CC1(C)[C@@H]2CC[C@]1(C)[C@H](OC(=O)CSC#N)C2 .
RESULT: False

QUERY: Would you mind telling me which call this test gave CN(C)C(=O)/C=C/c1c[nH]c(=O)[nH]c1=O ?
RESULT: False

QUERY: Short answer needed: outcome of this test for Cc1noc2nnn(-c3ccc(Cl)cc3)c(=O)c12 ?
RESULT: False

QUERY: Identify the outcome logged in this assay for the compound shown: CSC(=S)OC1C(CO[Si](C)(C)C(C)(C)C)OC2OC(C)(C)OC21 (stereo not drawn)
RESULT: False

QUERY: State the result this test recorded for NNC1=Nc2ccc(Cl)cc2C(=S)N2CSCC12 (stereo not drawn) .
RESULT: False

QUERY: # fetch the recorded call for CCOC(=O)C(NC(=O)c1nc[nH]c1/N=N/N(C)C)C(C)C (stereo not drawn) here
RESULT: False

QUERY: Look up the recorded call for COC(=O)C[C@H](COCc1ccccc1)NC(=O)C[C@H](COCc1ccccc1)NC(=O)OC(C)(C)C in this test.
RESULT: False

* * *

# Tested on: OVCAR-3
# assay-method-text: NCI tumour cell line growth inhibition, 48 h
Calls of active or inactive are those of the source. No stated cut-off is given here; in the data, active = GI50 up to about 1.1 µM and inactive = higher.
assay-endpoint: GI50

// below: answered molecules
molecule	reported-measurement
CCOC(=O)c1cnc2oc(-c3ccc(OC)cc3)nn2c1=O	> 100 µM (inactive)
CC1(C)CCc2cc3c(cc2O1)OCCC3=O	> 100 µM (inactive)
C=CCCCC1CCCNC1=S (centres undefined)	> 100 µM (inactive)
COc1cc2ccc3c4c(OC)cc(OC)c(OC)c4c([O-])[n+](C)c3c2cc1OC	7.13 µM (inactive)
CN(C)C(=C1C(Br)=C(Br)C(Br)=C1Br)N(C)C	> 100 µM (inactive)

Below are some molecules; for each one, tell me its GI50.
1. COc1cc(/C=C2\CCC(C)(CN(C)C)C2=O)cc(OC)c1OC (centres undefined)
2. C/C(=N\N(C)C)C(CN1CCCCC1)C(c1ccccc1)c1c(O)c2ccccc2oc1=O (centres undefined)
3. O=[N+]([O-])C(/C=C(\Cl)[N+](=O)[O-])=C(N1CCOCC1)N1CCOCC1
4. O=C(OCCN=c1c2ccccc2ccc2ccccc12)c1cc([N+](=O)[O-])cc([N+](=O)[O-])c1
5. CCOC1=NC(C(F)(F)F)(C(F)(F)F)N=C(N2CCOCC2)O1
6. COC(=O)C1=Cc2cc(OC)c(O)cc2[C@@H](c2ccc(O)c(OC)c2)[C@@H]1C(=O)OC
7. CNC(=O)OCC1C2=C(C(=O)C(C)=C(N)C2=O)N2CC3C(N3C)C12OC (centres undefined)
8. Nc1ccc(/N=N/c2ccc(/C=C/c3ccc(/N=N/c4ccc(N)c5ccc(S(=O)(=O)O)cc45)cc3S(=O)(=O)O)c(S(=O)(=O)O)c2)c2cc(S(=O)(=O)O)ccc12

RESULT:
1. > 100 µM (inactive)
2. > 100 µM (inactive)
3. 19.7 µM (inactive)
4. 40.6 µM (inactive)
5. > 100 µM (inactive)
6. > 100 µM (inactive)
7. 26.5 µM (inactive)
8. > 100 µM (inactive)

Please give GI50, item by item, for the list that follows.
1. O=C1C=CC(O)(C#CCO)C=C1
2. Clc1ccc(-c2nn3c(-c4ccncc4)nnc3s2)cc1
3. C=C1CC(C)(c2ccc(Nc3nc4ccccc4c4occc34)cc2)OC1=O (centres undefined)
4. CCCCCC[C@H]1C(=O)O[C@H](C)[C@H](NC(=O)c2cccc(NC=O)c2OC)C(=O)O[C@@H](C)[C@@H]1OC(=O)C(C)CC.CCCCCC[C@H]1C(=O)O[C@H](C)[C@H](NC(=O)c2cccc(NC=O)c2OC)C(=O)O[C@@H](C)[C@@H]1OC(=O)CC(C)C (some centres undefined)
5. CCOC(=O)c1sc2nc(SC)nc3c2c1NC(=O)CN3c1ccc(F)cc1

RESULT:
["17 µM (inactive)", "> 100 µM (inactive)", "3.74 µM (inactive)", "6.71 µM (inactive)", "26.4 µM (inactive)"]

QUERY: Return GI50 measured with OVCAR-3 given this molecule: CN(C)C(=O)OC1=CC2CCC(C1)N2C (centres undefined)
RESULT: > 100 µM (inactive)
